- Target or system: 5-HT2 (Rattus norvegicus, UniProt P14842)
- Construct: from tissue; host or cells: whole anesthetized male Sprague-Dawley rat; vasculature (blood pressure response)
- Sequence (P14842 whole entry): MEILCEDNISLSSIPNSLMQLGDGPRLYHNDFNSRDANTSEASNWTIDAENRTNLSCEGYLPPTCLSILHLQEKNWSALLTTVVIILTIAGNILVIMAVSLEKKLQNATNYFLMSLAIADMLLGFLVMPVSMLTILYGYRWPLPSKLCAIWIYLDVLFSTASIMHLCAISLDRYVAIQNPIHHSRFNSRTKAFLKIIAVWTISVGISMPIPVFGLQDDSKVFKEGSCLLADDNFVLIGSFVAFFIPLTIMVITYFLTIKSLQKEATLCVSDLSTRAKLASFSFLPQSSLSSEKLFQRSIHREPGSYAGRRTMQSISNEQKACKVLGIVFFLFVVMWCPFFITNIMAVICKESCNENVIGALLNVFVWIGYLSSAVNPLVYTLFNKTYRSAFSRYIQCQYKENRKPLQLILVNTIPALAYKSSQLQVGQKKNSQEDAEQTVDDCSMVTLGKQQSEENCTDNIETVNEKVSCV
- Test name: 5-HT2 antagonism (inhibition of 5-hydroxytryptamine hypertensive response, anesthetized rats)
- Type: in vivo, rats (male Sprague-Dawley)
- Cond: iv, cumulative doses, 5-hydroxytryptamine 100 μg/kg i.v., rats pretreated with d-tubocurarine and prazosin, read-out: ID50, dose inhibiting the hypertensive response by 50%
Structures can show the parent of a compound that is named as a salt.
Observed property: ED50 (mg/kg)
One number for each entry, in mg/kg.

Compound	Target or system	Unit abbrev	Reading
Cc1ccc(C(=C2CCN(CCc3c(C)nc4c(C(N)=O)ncn4c3O)CC2)c2ccccc2)cc1.Cl	5-HT2 (Rattus norvegicus, UniProt P14842)	mg/kg	0.027

Each of the following entries comes with a recorded value; kindly state ED50 for each.
1. Cc1nc2c(C(N)=O)ncn2c(O)c1CCN1CCC(=C(c2ccccc2)c2ccc(F)cc2)CC1.Cl
2. Cc1nc2c(C(N)=O)ncn2c(O)c1CCN1CCC(=C(c2ccc(F)cc2)c2ccc(F)cc2)CC1.Cl

// result
0.024
0.013

For every item below, please supply its ED50.
1. O=C1CN(Cc2ccccn2)CC(=O)N1CCCN1CCC(=C(c2ccccc2)c2ccc(F)cc2)CC1 [EXAMPLE 10, dihydrochloride]
2. Cl.O=C1CN(Cc2ccccc2F)CC(=O)N1CCCN1CCC(=C(c2ccccc2)c2ccc(F)cc2)CC1
3. O=C1CN(Cc2ccccc2F)CC(=O)N1CCCN1CCC(=C2c3ccccc3-c3ccccc32)CC1 [EXAMPLE 6, hydrochloride]

// result
1. 0.0082
2. 0.034
3. 0.039

---

- System: 5-hydroxytryptophan
- Test name: 5-HTP antagonism (symptoms induced by 5-hydroxytryptophan)
- Assay type: in vivo, rats (female Wistar)
- Cond: Rattus norvegicus, po; compounds orally; 5-hydroxytryptophan 320 mg/kg by gavage; read-out: ED50 FBP (flat body posture)
Structures can show the parent of a compound that is named as a salt.
For each of the molecules below, state its ED50.
Answers are plain numbers, in mg/kg.

Molecule	Target or system	Reading
O=C1CN(Cc2ccccc2F)CC(=O)N1CCCN1CCC(=C2c3ccccc3-c3ccccc32)CC1 [EXAMPLE 6, hydrochloride]	5-hydroxytryptophan	2.5
Cc1nc2c(C#N)ncn2c(O)c1CCN1CCC(=C(c2ccc(F)cc2)c2ccc(F)cc2)CC1 [EXAMPLE 11, hydrochloride]	5-hydroxytryptophan	1.25
Cc1nc2c(C(N)=O)ncn2c(O)c1CCN1CCC(=C(c2ccc(F)cc2)c2ccc(F)cc2)CC1.Cl [EXAMPLE 1]	5-hydroxytryptophan	0.16

// query Name the recorded ED50 for Cc1nc2c(C#N)ncn2c(O)c1CCN1CCC(=C(c2ccccc2)c2ccc(F)cc2)CC1.Cl [EXAMPLE 4] .
// result 1.25
